In this section, each of the substances is paired with its reported TLR7-100 nM: averaged NF-κB-Luciferase relative to R848.
targetEntity: human TLR7 (Homo sapiens)
Construct: HA; host or cells: 293XL-hTLR7-HA (HEK293)
Sequence (Q9NYK1 27-1049): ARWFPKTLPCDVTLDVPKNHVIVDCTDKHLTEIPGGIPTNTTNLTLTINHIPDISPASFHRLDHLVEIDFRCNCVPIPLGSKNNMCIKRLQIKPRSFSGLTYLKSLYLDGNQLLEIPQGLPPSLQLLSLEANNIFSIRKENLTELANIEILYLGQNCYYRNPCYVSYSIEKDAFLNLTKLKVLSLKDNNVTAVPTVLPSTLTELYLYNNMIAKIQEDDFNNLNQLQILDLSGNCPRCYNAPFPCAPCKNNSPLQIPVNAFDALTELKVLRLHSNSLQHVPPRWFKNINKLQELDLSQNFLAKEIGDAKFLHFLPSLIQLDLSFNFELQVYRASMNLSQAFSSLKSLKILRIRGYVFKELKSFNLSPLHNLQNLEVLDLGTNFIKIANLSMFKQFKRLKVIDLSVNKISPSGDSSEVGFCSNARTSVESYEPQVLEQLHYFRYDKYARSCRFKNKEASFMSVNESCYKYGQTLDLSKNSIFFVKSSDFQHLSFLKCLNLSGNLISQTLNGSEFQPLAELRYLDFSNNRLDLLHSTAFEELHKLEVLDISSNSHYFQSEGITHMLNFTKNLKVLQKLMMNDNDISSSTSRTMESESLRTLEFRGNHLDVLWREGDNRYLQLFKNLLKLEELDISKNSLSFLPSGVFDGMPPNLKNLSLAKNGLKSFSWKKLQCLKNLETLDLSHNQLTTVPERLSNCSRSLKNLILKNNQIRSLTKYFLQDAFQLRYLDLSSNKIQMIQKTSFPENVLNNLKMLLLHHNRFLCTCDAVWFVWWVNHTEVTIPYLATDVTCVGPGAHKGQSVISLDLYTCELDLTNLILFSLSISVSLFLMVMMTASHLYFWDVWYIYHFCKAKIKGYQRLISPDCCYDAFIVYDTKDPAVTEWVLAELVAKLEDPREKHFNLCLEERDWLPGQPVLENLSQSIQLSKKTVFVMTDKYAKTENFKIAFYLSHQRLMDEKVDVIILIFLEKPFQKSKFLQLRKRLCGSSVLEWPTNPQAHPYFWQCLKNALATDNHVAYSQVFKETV
methodDescription: HEK-TLR7 NF-κB-luciferase reporter, R848 stimulation
Format: cell-based
conditions: HEK-TLR7; 100 nM ASO; percentage of R848 without ASO (Alharbi et al., 2020)
In the oligonucleotide strings, read from the 5' end, every base follows the letter of its sugar. An asterisk marks phosphorothioate; unmarked linkages are phosphodiester. Other units and linkages are bracketed, terminal groups are in braces. A string of capitals states the bases alone. d = 2'-deoxy (DNA); m = 2'-O-methyl
Please respond with the number in % and leave the unit unwritten.

Recorded results for 3 substances are shown here.
- substance: "mA*mU*mA*mU*mC*T*G*C*T*G*C*C*C*A*C*mC*mU*mU*mC*mU (AUAUCTGCTGCCCACCUUCU; antisense; sugars from the 5' end m5 d10 m5, all phosphorothioate, methylation of C not given here) [[CDKN2B-AS1]831]"
  value: 47.52
- substance: "mC*mU*mC*mU*mC*T*G*G*T*C*C*C*A*T*C*mC*mC*mU*mU*mC (mC*mU*mC*mU*mC*dT*dG*dG*dT*dC*dC*dC*dA*dT*dC*mC*mC*mU*mU*mC; antisense) [[LINC-PINT]109]"
  value: 84.97
- substance: "mA*mU*mU*mU*mC*C*A*C*A*T*G*C*C*C*A*mG*mU*mG*mU*mU (AUUUCCACATGCCCAGUGUU; antisense; sugars from the 5' end m5 d10 m5, all phosphorothioate, methylation of C not given here) [[CDKN2B-AS1]626]"
  value: 32.05

For this substance ( mG*mU*mG*mU*mU*T*T*T*A*A*T*T*T*T*G*mU*mA*mG*mA*mG (mG*mU*mG*mU*mU*dT*dT*dT*dA*dA*dT*dT*dT*dT*dG*mU*mA*mG*mA*mG) [[CDKN2B-AS1]611] ), measured TLR7-100 nM: averaged NF-κB-Luciferase relative to R848 is 23.63

Given item mA*mG*mC*mC*mG*A*A*C*A*G*A*A*G*G*A*mG*mC*mG*mU*mC (AGCCGAACAGAAGGAGCGUC; sugars from the 5' end m5 d10 m5, all phosphorothioate, methylation of C not given here) [[LINC-PINT]587 KL] , the value recorded as its TLR7-100 nM: averaged NF-κB-Luciferase relative to R848 is 27.70

Input mU*mG*mA*mC*mA*A*A*A*C*A*A*T*A*A*T*mA*mA*mC*mA*mG (mU*mG*mA*mC*mA*dA*dA*dA*dC*dA*dA*dT*dA*dA*dT*mA*mA*mC*mA*mG) [[LINC-PINT]384] . Output TLR7-100 nM: averaged NF-κB-Luciferase relative to R848: 36.68

Per the records, this substance ( mA*mA*mA*mA*mU*A*A*G*G*G*G*A*A*T*A*mG*mG*mG*mG*mA (mA*mA*mA*mA*mU*dA*dA*dG*dG*dG*dG*dA*dA*dT*dA*mG*mG*mG*mG*mA; antisense) [[CDKN2B-AS1]79] ) has TLR7-100 nM: averaged NF-κB-Luciferase relative to R848 equal to 68.45

Note to self: TLR7-100 nM: averaged NF-κB-Luciferase relative to R848 recorded for mG*mU*mC*mC*mG*T*A*C*C*T*C*C*A*C*C*mC″mA*mC*mC*mG [[LINC-PINT]727.1] was 22.79

The measured TLR7-100 nM: averaged NF-κB-Luciferase relative to R848 associated with mA*mG*mG*mC*mC*T*C*C*A*G*T*G*T*C*T*mU*mC*mU*mC*mC (mA*mG*mG*mC*mC*dT*dC*dC*dA*dG*dT*dG*dT*dC*dT*mU*mC*mU*mC*mC; antisense) [[CDKN2B-AS1]2218] reads 44.73

So, mC*mA*mA*mG*mC*C*C*C*A*G*C*G*T*T*C*mC*mU*mC*mC*mG (mC*mA*mA*mG*mC*dC*dC*dC*dA*dG*dC*dG*dT*dT*dC*mC*mU*mC*mC*mG; antisense) [[LINC-PINT]83.1] ? Its TLR7-100 nM: averaged NF-κB-Luciferase relative to R848 was 45.20

Reported TLR7-100 nM: averaged NF-κB-Luciferase relative to R848 for mG*mC*mA*mG*mU*C*T*C*C*A*T*G*T*C*C*mC*mA*mG*mG*mC (GCAGUCTCCATGTCCCAGGC; antisense; sugars from the 5' end m5 d10 m5, all phosphorothioate, methylation of C not given here) [[CDKN2B-AS1]2234] was 20.30

What the record says about mC*mU*mU*mC*mU*C*T*C*T*G*G*T*C*C*C*mA*mU*mC*mC*mC (mC*mU*mU*mC*mU*dC*dT*dC*dT*dG*dG*dT*dC*dC*dC*mA*mU*mC*mC*mC) [[LINC-PINT]112] : TLR7-100 nM: averaged NF-κB-Luciferase relative to R848 is 56.20

The measured TLR7-100 nM: averaged NF-κB-Luciferase relative to R848 associated with mG*mU*mC*mU*mC*C*T*C*C*A*C*A*C*C*C*mU*mU*mC*mU*mC (mG*mU*mC*mU*mC*dC*dT*dC*dC*dA*dC*dA*dC*dC*dC*mU*mU*mC*mU*mC; antisense) [[LINC-PINT]126] reads 25.01

Entry mA*mG*mG*mA*mU*T*A*A*A*A*C*A*G*A*T*mU*mA*mA*mU*mA (mA*mG*mG*mA*mU*dT*dA*dA*dA*dA*dC*dA*dG*dA*dT*mU*mA*mA*mU*mA) [[CDKN2B-AS1] 1775] ; TLR7-100 nM: averaged NF-κB-Luciferase relative to R848 = 36.28

Record summary for mU*mU*mC*mU*mC*T*C*T*G*G*T*C*C*C*A*mU*mC*mC*mC*mU (mU*mU*mC*mU*mC*dT*dC*dT*dG*dG*dT*dC*dC*dC*dA*mU*mC*mC*mC*mU; antisense) [[LINC-PINT]111] : reported TLR7-100 nM: averaged NF-κB-Luciferase relative to R848 = 26.22

Entry mG*mU*mC*mC*mC*A*G*G*C*C*T*C*C*A*G*mU*mG*mU*mC*mU (mG*mU*mC*mC*mC*dA*dG*dG*dC*dC*dT*dC*dC*dA*dG*mU*mG*mU*mC*mU; antisense) [[CDKN2B-AS1]2223] ; TLR7-100 nM: averaged NF-κB-Luciferase relative to R848 = 19.01

Noted for mC*mA*mC*mU*mG*T*A*T*T*T*T*A*T*T*A*mC*mA*mG*mA*mA (mC*mA*mC*mU*mG*dT*dA*dT*dT*dT*dT*dA*dT*dT*dA*mC*mA*mG*mA*mA; antisense) [[LINC-PINT]2990] : its TLR7-100 nM: averaged NF-κB-Luciferase relative to R848 reads 58.13

FYI, the data here is from patent US20240384268A1.
